assay: Cytotoxicity against human SH-SY5Y cells assessed as cell viability at 12.5 uM measured after 2 hrs by MTT assay relative to control; format: cell-based; details: read-out: Activity
measurement.type: viability at 2 h, 12.5 µM

Some solved entries appear below for comparison.
- molecule: "COc1cc2c(cc1O)CCC(C)(CC(=O)N1CCC[C@H]1C(=O)O)O2 (stereo not given in full)"
  recorded.result: "100%"
- molecule: "COc1cc2c(cc1O)CCC(C)(CCNC(=O)/C=C(C)/C=C/C=C(C)/C=C/C1=C(C)CCCC1(C)C)O2 (stereo not given)"
  recorded.result: "100%"
- molecule: "COc1cc2c(cc1O)CCC(C)(CC(N)=O)O2 (stereo not given)"
  recorded.result: "85.8%"
- molecule: "COc1cc2c(cc1O)CCC(C)(CC(=O)N[C@@H](CCC(N)=O)C(=O)O)O2 (stereo not given in full)"
  recorded.result: "100%"

# evaluate next
Task: Output measured viability at 2 h, 12.5 µM for this item: COc1cc2c(cc1O)CCC(C)(CC(=O)O)O2 (stereo not given)
Output: 100%

These entries and their values trace back to ChEMBL document CHEMBL4715750.
